Cited source for all entries: paper PMC6893898

Provide the reported Emax of each item.
assay system: human 5-HT2B receptor (Homo sapiens)
Construct: expressed in transfected cells; host or cells: HEK 293
Sequence (P41595 whole entry): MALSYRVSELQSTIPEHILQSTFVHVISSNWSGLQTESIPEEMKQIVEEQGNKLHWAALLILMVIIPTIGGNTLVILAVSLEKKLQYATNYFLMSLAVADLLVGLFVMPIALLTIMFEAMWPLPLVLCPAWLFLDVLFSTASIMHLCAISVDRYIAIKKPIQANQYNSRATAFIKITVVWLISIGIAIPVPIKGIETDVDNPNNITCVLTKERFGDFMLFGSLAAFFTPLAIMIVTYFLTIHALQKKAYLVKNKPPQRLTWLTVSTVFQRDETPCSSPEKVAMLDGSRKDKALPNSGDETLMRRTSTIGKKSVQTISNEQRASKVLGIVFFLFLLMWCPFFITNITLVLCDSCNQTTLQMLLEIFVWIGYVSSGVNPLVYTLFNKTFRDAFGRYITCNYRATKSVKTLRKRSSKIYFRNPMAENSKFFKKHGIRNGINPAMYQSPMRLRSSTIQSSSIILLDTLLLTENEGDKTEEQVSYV
assay remarks: Activity at the 5-HT2B receptor (FLIPR calcium, HEK 293 cells)
Assay type: cell-based
test conditions: HEK293, relative to 5-HT = 100%; read-out: h5-HT2B Activation efficacy max ± SD

GET /values?readout=Emax&item= C=C(C)COc1cc(OC)c(CC(C)N)cc1OC (stereo not drawn) [MMALM, 2,5-dimethoxy-4-methallyloxyamphetamine]
85 to 101%

Quick one: Emax of C=CCOc1cc(OC)c(CC(C)N)cc1OC (stereo not drawn) [MALM, 4-allyloxy-2,5-dimethoxyamphetamine] ?
85 to 101%

Please give the measured Emax for this compound: CCOc1cc(OC)c(CCN)cc1OC [2C-O-2, 2,5-dimethoxy-4-ethoxyphenethylamine]
85 to 101%
